- Measurement Notes: logP determination by HPLC on reversed phase column (C 18), EEC directive 79/831
- Type: physicochemical
- Experimental Conditions: reversed phase HPLC column (C 18), pH 2; pH2
Measure: chromatographic logP
Answer as a number with no unit attached.

Consider N#Cc1cccc(C(=O)C(Br)CCCl)c1 (stereo not shown) [Example (X-1), 3′-cyano-2-bromo-4-chlorobutyrophenone] . Its measured chromatographic logP is 3.09
